system: HT-29; assay: Cytotoxicity against human HT29 cells after 48 hrs by SRB assay; type: functional, cell-based; conditions: Homo sapiens, HT-29, 48 h; read-out: LC50 (the source's name)
Property measured: log10 of CC50 (log10 of the value in nM)
Hello, just confirming the data are log10 of CC50 with units of nM.

Look over these answered cases.
Compound structure | log10 of CC50
C/C=C1\NC(=O)[C@H](Cc2ccccc2)NC(=O)[C@@H](C(C)C)NC(=O)[C@@H]([C@H](C)CC)NC(=O)[C@H](NC(=O)[C@H](NC(=O)[C@H](CCCN)NC(=O)[C@H]2CCCN2C(=O)[C@H](NC(=O)[C@@H](NC(=O)[C@@H](NC(=O)[C@H](NC(=O)CCCC(C)C)C(C)C)C(C)C)C(C)C)C(C)C)[C@H](C)CC)[C@H](C)OC(=O)[C@H](C(C)C)NC1=O | 2.51
C/C=C1\NC(=O)[C@H](Cc2ccccc2)NC(=O)[C@@H](C(C)C)NC(=O)[C@@H]([C@H](C)CC)NC(=O)[C@H](NC(=O)[C@H](NC(=O)[C@H](CCCN)NC(=O)[C@H]2CCCN2C(=O)[C@H](NC(=O)[C@@H](NC(=O)[C@@H](NC(=O)[C@H](NC(=O)CC[C@@H](C)CC)C(C)C)[C@@H](C)OC(=O)C(F)(F)F)C(C)C)C(C)C)[C@H](C)CC)[C@H](C)OC(=O)[C@H](C(C)C)NC1=O | 2.43
C/C=C1\NC(=O)[C@H](Cc2cccs2)NC(=O)[C@@H](C(C)C)NC(=O)[C@@H]([C@H](C)CC)NC(=O)[C@H](NC(=O)[C@H](NC(=O)[C@H](CCCN)NC(=O)[C@H]2CCCN2C(=O)[C@H](NC(=O)[C@@H](NC(=O)[C@@H](NC(=O)[C@H](NC(=O)CC[C@@H](C)CC)C(C)C)[C@@H](C)O)C(C)C)C(C)C)[C@H](C)CC)[C@H](C)OC(=O)[C@H](C(C)C)NC1=O | 2.82
C/C=C1\NC(=O)[C@H](Cc2ccccc2)NC(=O)[C@@H](C(C)C)NC(=O)[C@@H]([C@H](C)CC)NC(=O)[C@H](NC(=O)[C@H](NC(=O)[C@H](CCCN)NC(=O)[C@H]2CCCN2C(=O)[C@H](NC(=O)[C@@H](NC(=O)[C@@H](NC(=O)[C@@H](C(C)C)N(CCCCCC)CCCCCC)[C@@H](C)O)C(C)C)C(C)C)[C@H](C)CC)[C@H](C)OC(=O)[C@H](C(C)C)NC1=O | 3.31
CC[C@@H]1NC(=O)[C@H](Cc2ccccc2)NC(=O)[C@@H](C(C)C)NC(=O)[C@@H]([C@H](C)CC)NC(=O)[C@H](NC(=O)[C@H](NC(=O)[C@H](CCCN)NC(=O)[C@H]2CCCN2C(=O)[C@H](NC(=O)[C@@H](NC(=O)[C@@H](NC(=O)[C@H](NC(=O)CCCC(C)C)C(C)C)[C@@H](C)O)C(C)C)C(C)C)[C@H](C)CC)[C@H](C)OC(=O)[C@H](C(C)C)NC1=O | 3.72
C/C=C1\NC(=O)[C@H](Cc2ccccc2)NC(=O)[C@@H](C(C)C)NC(=O)[C@@H]([C@H](C)CC)NC(=O)[C@H](NC(=O)[C@H](NC(=O)[C@H](CCCN)NC(=O)[C@H]2CCCN2C(=O)[C@H](NC(=O)[C@@H](NC(=O)[C@@H](NC(=O)[C@@H](Cc2ccccc2)NC(=O)CCCC(C)C)[C@@H](C)O)C(C)C)C(C)C)[C@H](C)CC)[C@H](C)OC(=O)[C@H](C(C)C)NC1=O | 3.75

Inquiry: Entry under review: C/C=C1\NC(=O)[C@H](Cc2ccc(F)cc2)NC(=O)[C@@H](C(C)C)NC(=O)[C@@H]([C@H](C)CC)NC(=O)[C@H](NC(=O)[C@H](NC(=O)[C@H](CCCN)NC(=O)[C@H]2CCCN2C(=O)[C@H](NC(=O)[C@@H](NC(=O)[C@@H](NC(=O)[C@H](NC(=O)CC[C@@H](C)CC)C(C)C)[C@@H](C)O)C(C)C)C(C)C)[C@H](C)CC)[C@H](C)OC(=O)[C@H](C(C)C)NC1=O . Reported log10 of CC50?
Reply text: 2.68

Inquiry: Would you kindly share the measured log10 of CC50 for C/C=C1\NC(=O)[C@H](Cc2c(F)c(F)c(F)c(F)c2F)NC(=O)[C@@H](C(C)C)NC(=O)[C@@H]([C@H](C)CC)NC(=O)[C@H](NC(=O)[C@H](NC(=O)[C@H](CCCN)NC(=O)[C@H]2CCCN2C(=O)[C@H](NC(=O)[C@@H](NC(=O)[C@@H](NC(=O)[C@H](NC(=O)CC[C@@H](C)CC)C(C)C)[C@@H](C)O)C(C)C)C(C)C)[C@H](C)CC)[C@H](C)OC(=O)[C@H](C(C)C)NC1=O ?
Reply text: 2.41

Inquiry: Item C/C=C1\NC(=O)[C@H](Cc2ccccc2)NC(=O)[C@@H](C(C)C)NC(=O)[C@@H]([C@H](C)CC)NC(=O)[C@H](NC(=O)[C@H](NC(=O)[C@H](CCCN)NC(=O)[C@H]2CCCN2C(=O)[C@H](NC(=O)[C@@H](NC(=O)[C@@H](NC(=O)[C@H](NC(=O)C(F)(F)C(F)(F)C(F)(F)C(F)(F)C(F)(F)C(F)(F)F)C(C)C)[C@@H](C)O)C(C)C)C(C)C)[C@H](C)CC)[C@H](C)OC(=O)[C@H](C(C)C)NC1=O has what recorded log10 of CC50?
Reply text: 2.75

Inquiry: Could you share which log10 of CC50 value was measured for C/C=C1\NC(=O)[C@H](Cc2ccccc2)NC(=O)[C@@H](C(C)C)NC(=O)[C@@H]([C@H](C)CC)NC(=O)[C@H](NC(=O)[C@H](NC(=O)[C@H](CCCN)NC(=O)[C@H]2CCCN2C(=O)[C@H](NC(=O)[C@@H](NC(=O)[C@@H](NC(=O)[C@H](NC(=O)CCCC(C)C)C(C)C)[C@@H](C)O)C(C)C)C(C)C)[C@H](C)CC)CNC(=O)[C@H](C(C)C)NC1=O ?
Reply text: 2.95
